Below, each entry is listed alongside its reported Desolvation Temperature.
Assay: Thermogravimetric analysis of solvates (desolvation)
Assay type: physicochemical
Details: eplerenone crystalline solvate; extrapolated from final solvent weight loss step, TGA, 10° C./minute, nitrogen purge
// note: answer is a bare numeric in °C

Please review the following examples before continuing.
{"columns": ["COMPOUND", "Desolvation Temperature, °C"],
 "data": [
  ["CCCCOC(C)=O [Butyl Acetate]", 108],
  ["CCCCO", 103],
  ["Cc1ccccc1", 83]
]}

# context switch: different compound, same Desolvation Temperature
Supply recorded Desolvation Temperature for "CC(C)O" here.
121

====

Parameter: Desolvation Temperature. Scope: all listed entries.
Test: Thermogravimetric analysis of solvates (desolvation)
Type: physicochemical
Settings: eplerenone crystalline solvate; extrapolated from final solvent weight loss step, TGA, 10° C./minute, nitrogen purge

{"columns": ["COMPOUND", "Desolvation Temperature"],
 "data": [
  ["CCCOC(C)=O [Propyl Acetate]", "130 °C"]
]}

Then this compound:
State, in one line, measured Desolvation Temperature of ClC(Cl)Cl [Chloroform]
125 °C
